biological target: CYP3A4 (Homo sapiens (Human)); assay: Fluorescent High Throughput P450 assay, CYP3A4; assay type: biochemical; conditions: substrate BFC; read-out: CYP3A4 IC50 (Mean ± S.D.)
Sequence (P08684 whole entry, looked up): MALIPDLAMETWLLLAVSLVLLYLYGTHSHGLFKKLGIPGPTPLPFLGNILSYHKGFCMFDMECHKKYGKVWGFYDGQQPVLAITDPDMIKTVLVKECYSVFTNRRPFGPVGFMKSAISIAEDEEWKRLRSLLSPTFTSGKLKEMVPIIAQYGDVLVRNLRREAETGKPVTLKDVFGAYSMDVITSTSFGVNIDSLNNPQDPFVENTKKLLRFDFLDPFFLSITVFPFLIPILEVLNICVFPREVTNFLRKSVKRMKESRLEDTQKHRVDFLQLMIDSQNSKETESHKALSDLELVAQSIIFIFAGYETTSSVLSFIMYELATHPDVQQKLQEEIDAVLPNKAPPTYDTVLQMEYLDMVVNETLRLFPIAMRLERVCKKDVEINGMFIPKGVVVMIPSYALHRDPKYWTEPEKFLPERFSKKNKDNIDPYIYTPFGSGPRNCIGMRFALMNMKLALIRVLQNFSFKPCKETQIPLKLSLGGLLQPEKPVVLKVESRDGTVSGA
PARAMETER_MEASURED: pIC50
Value format note: pIC50 is -log10 of concentration (mol/L); just state the number.

# get_value(readout='pIC50', item= CCCCCCCCCCCC(=O)OCC(COP(=O)(O)OCCNC(=O)c1ccc(Cn2c(=O)[nH]c3c(N)nc(OCCOC)nc32)cc1)OC(=O)CCCCCCCCCCC (stereo not shown) [SC12] )
4.87

###

Test system: PBMCs
Assay: IL-6 and TNF-alpha secretion in PBMCs from three donors (ELISA)
Format: cell-based, human
Conditions: Homo sapiens, PBMC, average of three donors; read-out: TNFa secretion Average EC50
Procedure: EC50 values were determined for control and each drug candidate for IL-6 and TNF-alpha secretion. […] The cells were treated with TLR7 agonists for 24 hours in 7 doses. The conditioned media was removed for ELISA analyses for IL-6 and TNF-alpha, and cell survival determined by the XTT method according to the protocol from the supplier. […] Concentrations of IL-6 and TNF-alpha were determined by ELISA from R&D Systems using the Microsoft Excel Software. […]
PARAMETER_MEASURED: EC50 (µM)
Unit µM implied. Number only.

# get_value(readout='EC50', item= CC(C)Cn1cnc2c(N)nc3ccccc3c21 [Imiquimod, reference compound] )
16.8
